Value source: patent US7915255B2

# System: 3T3-L1 preadipocytes
# Assay Details: Adipogenesis of 3T3-L1 preadipocytes (lipid accumulation, G3PDH activity, protein)
# Format: cell-based, murine
# Assay Context: Mus musculus, 3T3-L1; increasing MPA for the first 6 days of differentiation, harvested day 8; read-out: IC50 for inhibition of differentiation (G3PDH activity and protein levels)
Experimental Endpoint: IC50

Query block: Would you kindly share the measured IC50 for COc1c(C)c2c(c(O)c1C/C=C(\C)CCC(=O)O)C(=O)OC2 [MPA, mycophenolic acid] ?
Result block: 100 to 200 nM
